These data points were gathered from ChEMBL document CHEMBL5126510.

- TARGET_OR_TEST_SYSTEM: Ubiquitin carboxyl-terminal hydrolase isozyme L3 (Homo sapiens)
- ASSAY_NOTES: Inhibition of UCHL3 (unknown origin) using ubiquitin-AMC as substrate by fluorescence assay
ENDPOINT: pIC50
pIC50 is defined as minus the log10 of a concentration measured in mol/L.

I'm curious: which pIC50 was measured for O=C1c2ccccc2C(=O)c2oc(-c3ccc(F)cc3)nc21 tested on Ubiquitin carboxyl-terminal hydrolase isozyme L3 (Homo sapiens)? 5.67

----------
- TARGET_OR_TEST_SYSTEM: Ubiquitin carboxyl-terminal hydrolase isozyme L3 (Homo sapiens)
- ASSAY_NOTES: Inhibition of UCHL3 (unknown origin) assessed as reduction in RAD51 deubiquitination incubated for 4 hrs
ENDPOINT: pIC50
pIC50 is defined as minus the log10 of a concentration measured in mol/L.

Report pIC50 for CCCCCCCCCCCCCCCCCCOP(=O)([O-])OC1CC[N+](C)(C)CC1 please. 7.30

----------
Item-by-item account of IC50
- TARGET_OR_TEST_SYSTEM: Ubiquitin carboxyl-terminal hydrolase isozyme L1 (Homo sapiens, UniProt P09936)
- ASSAY_NOTES: Inhibition of UCHL1 (unknown origin) using Ub-Rho as substrate preincubated for 30 mins followed by substrate addition
Report as a plain number; the unit µM is understood.

{"columns": ["COMPOUND", "IC50, µM"],
 "data": [
  ["N#CN1CCCC1C(=O)n1ccc2c(-c3cn[nH]c3C(F)(F)F)cccc21 (configuration not stated)", 0.67]
]}

In the following, a different compound is considered.
Report IC50 for C#CCCn1cc(-c2cccc3c2ccn3C(=O)C2CCCN2C#N)c(C(F)(F)F)n1 (configuration not stated) please. 6.4

----------
- TARGET_OR_TEST_SYSTEM: Ubiquitin carboxyl-terminal hydrolase isozyme L1 (Homo sapiens, UniProt P09936)
- Sequence (P09936 whole entry): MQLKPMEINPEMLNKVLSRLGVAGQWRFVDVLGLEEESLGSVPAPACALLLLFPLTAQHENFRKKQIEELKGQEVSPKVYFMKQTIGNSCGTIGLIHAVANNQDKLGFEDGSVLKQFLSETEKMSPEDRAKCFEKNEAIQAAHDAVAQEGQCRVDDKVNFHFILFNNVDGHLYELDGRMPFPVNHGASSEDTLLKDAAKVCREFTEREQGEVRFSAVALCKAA
- ASSAY_NOTES: Inhibition of UCHL1 (unknown origin) using Ub-Rho-morpholine as substrate preincubated for 30 mins followed by substrate addition by fluorescence based assay
ENDPOINT: IC50 (µM)
Report as a plain number; the unit µM is understood.

I'm curious: which IC50 was measured for N#CN1CCC(C(=O)Nc2ncc(N3CCOCC3)s2)C1 (stereo unspecified) tested on Ubiquitin carboxyl-terminal hydrolase isozyme L1 (Homo sapiens, UniProt P09936)? 0.23

----------
- TARGET_OR_TEST_SYSTEM: Ubiquitin carboxyl-terminal hydrolase isozyme L3 (Homo sapiens)
- ASSAY_NOTES: Inhibition of UCHL3 (unknown origin) using Ub-AMC as substrate preincubated for 30 mins followed by substrate addition by fluorescence assay
ENDPOINT: IC50
Answer with the figure and its unit, nothing else.

Report IC50 for CCCCC[C@H](O)/C=C/[C@H]1C(=O)C=C[C@@H]1C/C=C\CCCC(=O)O please. 10 µM

----------
- TARGET_OR_TEST_SYSTEM: Ubiquitin carboxyl-terminal hydrolase isozyme L3 (Homo sapiens, UniProt P15374)
- Sequence (P15374 whole entry): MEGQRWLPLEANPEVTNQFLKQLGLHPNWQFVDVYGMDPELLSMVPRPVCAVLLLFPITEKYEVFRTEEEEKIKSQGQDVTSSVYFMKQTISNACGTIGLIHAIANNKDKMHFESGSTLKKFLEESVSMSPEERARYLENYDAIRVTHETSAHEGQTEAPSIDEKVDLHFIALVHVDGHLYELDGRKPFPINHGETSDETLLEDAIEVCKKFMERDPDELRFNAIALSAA
- ASSAY_NOTES: Inhibition of UCHL3 (unknown origin) incubated for 20 mins by fluorescence assay
ENDPOINT: IC50 (µM)
Report as a plain number; the unit µM is understood.

Report IC50 for COC(=O)c1cc(-c2ccc(OC)c(OC)c2O)c(N)c(-c2ccc3c(n2)C(=O)C(N)=C(OC)C3=O)n1 please. 5
